# assay-protocol: S. cerevisiae RM11-1a growth modifiers, primary screen, strain RM11-1a, OD600, basal, 24 h (AID 1177);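 further: cultures grown under basal conditions with no added stressor; test concentration not given here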
# details: OD600, 24 h, higher = more signal, called active from +8 up or from −8 down
Where z-score equals or exceeds -0.6, the correct label is Fulfilled; where it does not, the label is Not fulfilled.

Please review the entries below; each comes with its answer.
[[record]]
molecule = "O=C1[C@H]2[C@H]3[C@H](O)[C@H](O)CC(=NO[C@@H]4O[C@H](CO)[C@@H](O)[C@H](O)[C@H]4O)[C@@H]3CC[C@H]2C(=O)N1Cc1ccc2c(c1)OCO2"
group_label = "Fulfilled"

[[record]]
molecule = "C#CCCCON=C1C[C@@H](O)[C@@H](O)[C@@H]2[C@@H]3C(=O)N(CCC(=O)OCC)C(=O)[C@@H]3CC[C@@H]12"
group_label = "Fulfilled"

[[record]]
molecule = "Cc1ccc(S[C@]2(C(=O)O)CC(=O)N(Cc3ccccc3)[C@@H]2c2ccc(CO)cc2I)cc1"
group_label = "Not fulfilled"

[[record]]
molecule = "CC(C)CON=C1C[C@@H](O)[C@@H](O)[C@@H]2[C@@H]3C(=O)N(C[C@@H]4CCCO4)C(=O)[C@@H]3CC[C@H]12"
group_label = "Not fulfilled"

[[record]]
molecule = "CCOc1ccc(N2C(=O)/C(=C/C=C/c3ccccc3OC)S(=O)(=O)C2c2cccc([N+](=O)[O-])c2)cc1 (centres undefined)"
group_label = "Not fulfilled"

[[record]]
molecule = "CO[C@H]1COC(=O)[C@@H]2CCCN2C(=O)[C@@H](C)COC(=O)CC=C[C@@H]1C"
group_label = "Fulfilled"


Decide: z-score of CCOC(=O)NN=C1C[C@@H](O)[C@@H](O)[C@@H]2[C@@H]3C(=O)N(C[C@@H]4CCCO4)C(=O)[C@@H]3CC[C@@H]12 >= -0.6?
Fulfilled

Kindly determine if z-score recorded for COC(=O)[C@H](C)NC(=O)CCC1CC(OC(=O)NCCc2ccc(F)cc2)CC2(CCCC(COC(=O)NCC(c3ccccc3)c3ccccc3)O2)O1 (some centres undefined) is above or exactly -0.6.
Fulfilled

Hi team, for CCCCCN1CC=CC23O[C@@H]4C=CCOC(=O)[C@@H]4[C@H]2C(=O)N(CCCCCCO)[C@@H]3C1=O (some centres undefined) , is the recorded z-score at or above -0.6?
Fulfilled

###

# assay-protocol: yeast growth modulation, basal conditions, primary screen, YJM789 clinical isolate, OD600, 24 h (AID 1089);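 further: growth of clinical yeast isolate S. cerevisiae YJM 789 seeded 1000 cells per well; test concentration not given here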
# details: S. cerevisiae YJM789 growth, higher = more signal, called active from +8 up or from −8 down
recorded-endpoint: z-score
Give bare numbers.

Some compounds with recorded z-score:
[[record]]
compound = "COc1cccc([C@H]2Oc3ccc(OC)cc3C(=NOC(C)CN3CCCc4nc(C)c(C)cc43)[C@@H]2O)c1 (stereo not given in full)"
value_observed = -0.906

[[record]]
compound = "CCc1cc2c(nc1CC)CCN(CCC(C)=NO[C@@H](C)c1cc(-c3c(C)cc(C)cc3C)no1)C2"
value_observed = -0.889

[[record]]
compound = "CC(CCC(=O)OC[C@H]1O[C@H](C#Cc2ccccc2)C=C[C@@H]1Oc1ccc(C)cc1)=NO[C@@H](C)c1cn([C@H](CO)Cc2ccccc2)nn1"
value_observed = 0.846

[[record]]
compound = "CC(CCN1CCc2nc(-c3ccccc3)c(-c3ccccc3)cc2C1)=NOC(C)CN1CCCCc2nc(C)c(C)cc21 (stereo not given)"
value_observed = -1.03

[[record]]
compound = "O=C(NN=C1C[C@@H](O)[C@@H](O)[C@@H]2[C@@H]3C(=O)N(c4cccc(Oc5ccccc5)c4)C(=O)[C@@H]3CC[C@H]12)OCc1ccccc1"
value_observed = 0.686

[[record]]
compound = "O=C1[C@H]2[C@H]3[C@H](O)[C@H](O)CC(=NOC[C@@H](O)COCc4ccco4)[C@@H]3CC[C@H]2C(=O)N1c1ccc(F)cc1F"
value_observed = -0.236

[[record]]
compound = "COC(=O)CC=C[C@@H](C)[C@H](OC)c1ccccc1Br"
value_observed = 0.703

[[record]]
compound = "Cc1cc2c(nc1C)CCCN2CC(O)CN1CCN(C)CC1 (stereo not given)"
value_observed = -0.525


Provide the reported z-score of each entry below, same order.
1. COc1cccc([C@@H]2Oc3ccc(Br)cc3C(=O)[C@H]2O)c1
2. COc1ccc([Si](C)(C)[C@@H]2[C@@H](CCO)O[C@]3(C(=O)N(Cc4ccc(NC(C)=O)cc4)c4ccccc43)[C@H]2C)cc1
3. CC(CCN1CCCCc2nc(C)c(C)cc21)=NOC(C)CN1CCCc2nc(C)c(C)cc21 (stereo not given)
4. C=CCOC(=O)[C@H]1[C@@H]2C(=O)O[C@@H](c3ccccc3)[C@@H](c3ccccc3)N2[C@@H](c2ccc(OCCOC(=O)[C@H]3C[C@H]4C(=O)N5CCC[C@H]5C(=O)N4[C@H]3c3cccc(OCCO)c3)cc2)[C@]12C(=O)Nc1ccc(I)cc12
5. C#C[C@@H]1Oc2ccccc2S(=O)(=O)N2CCC[C@H]12
6. NCCCCCNC(=O)[C@@H]1C[C@@H]2C(=O)N3CCC[C@H]3C(=O)N2[C@@H]1c1cccc(OCCO)c1
7. CCN1C(=O)[C@H]2[C@H]3[C@H](O)[C@H](O)CC(=NOC[C@@H](C)[C@H](OCc4ccccc4)C(C)C)[C@@H]3CC[C@H]2C1=O

1: -2.84; 2: 2.99; 3: -1.19; 4: -0.104; 5: -0.0284; 6: -0.486; 7: -1.05

###

Would you mind telling me the reported z-score of each entry?
# assay-protocol: HepG2 cell viability effects, profiling panel, calcein-AM fluorescence, 48 h, basal (AID 1164); further: test concentration not given here
# details: higher = more signal
Give bare numbers.

Check out these entries, answers already filled in.
[[record]]
compound = "CCc1cc2c(nc1CC)CCN(CCC(C)=NO[C@@H](C)c1cc(-c3c(C)cc(C)cc3C)no1)C2"
recorded_endpoint = "z-score"
value_observed = 1.48

[[record]]
compound = "CC(CCN1CCCCc2nc(C)c(C)cc21)=NOC(C)CN1CCCc2nc(C)c(C)cc21 (stereo not drawn)"
recorded_endpoint = "z-score"
value_observed = -0.253

[[record]]
compound = "COC(=O)C1(C)C=C2C(=C(c3ccccc3)C(=O)C2C)CN1 (stereo not drawn)"
recorded_endpoint = "z-score"
value_observed = -1.26

[[record]]
compound = "CCN1C(=O)[C@H]2[C@H]3[C@H](O)[C@H](O)CC(=NOCc4ccccc4)[C@H]3CC[C@H]2C1=O"
recorded_endpoint = "z-score"
value_observed = -0.228

[[record]]
compound = "CCCC[C@H]1OB(O)C[C@H]2C1=C(C)C[C@H]1C(=O)N(C)C(=O)[C@H]12"
recorded_endpoint = "z-score"
value_observed = -1.02


Quick batch: z-score for everything below.
1. CC[C@@H](c1ccccc1)n1c(=O)n2n(c1=O)[C@H]1[C@H](O)[C@@H]3O[C@@H]3C(=NOCC(C)C)[C@H]1CC2
2. O=C(NN=C1C[C@@H](O)[C@@H](O)[C@@H]2[C@@H]3C(=O)N(c4ccc(F)cc4F)C(=O)[C@@H]3CC[C@@H]12)OCc1ccccc1
3. CC(=O)O[C@H]1C2=C(C(=O)[C@@H]3O[C@@H]31)[C@H]1C(C)O[C@@H]2[C@@]23C(=O)[C@@H]4O[C@@H]4[C@@H](O)C2=CO[C@H](C)[C@@H]13 (stereo partly drawn)

1. -0.389
2. -0.903
3. -1.54

###

# assay-protocol: yeast growth modulation, basal conditions, primary screen, YJM789 clinical isolate, OD600, 24 h (AID 1089);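 further: growth of clinical yeast isolate S. cerevisiae YJM 789 seeded 1000 cells per well; test concentration not given here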
# details: S. cerevisiae YJM789 growth, higher = more signal, called active from +8 up or from −8 down
Use satisfied when the recorded z-score is no lower than -0.05; use not satisfied when it is lower.

[[record]]
compound = "CCOC(=O)[C@H](Cc1ccccc1)NC(=O)CCC1CC(OC(=O)NCc2ccc3c(c2)OCO3)CC2(CCCC(COC(=O)NCC(c3ccccc3)c3ccccc3)O2)O1 (stereo partly specified)"
group_label = "satisfied"

[[record]]
compound = "COC(=O)CC=C[C@H](C)[C@H](CO)NS(=O)(=O)c1ccc(C)cc1"
group_label = "not satisfied"

[[record]]
compound = "CC(C)[Si]1(C(C)C)O[C@@H](c2ccccc2)c2cc(C3CC3)nc(-c3ccccc3)c21"
group_label = "not satisfied"

[[record]]
compound = "CCOC(=O)NN=C1C[C@@H](O)[C@@H](O)[C@@H]2[C@@H]3C(=O)N(CC)C(=O)[C@@H]3CC[C@@H]12"
group_label = "not satisfied"

[[record]]
compound = "CCOC(=O)NN=C1C[C@@H](O)[C@@H](O)[C@@H]2[C@@H]3C(=O)N(C(C)(C)C)C(=O)[C@@H]3CC[C@@H]12"
group_label = "not satisfied"

[[record]]
compound = "CC(C)=CCCC(C)=CCON=C1[C@H]2CCn3c(=O)n(Cc4cc5c(cc4Cl)OCO5)c(=O)n3[C@H]2[C@H](O)[C@@H]2O[C@H]12"
group_label = "satisfied"

[[record]]
compound = "CC(C)c1ccc(NN2C(C(O)c3ccc4c(c3)OCO4)C=CC3C(=O)N(c4ccccc4)C(=O)C32)cc1 (stereo unspecified)"
group_label = "satisfied"

[[record]]
compound = "COC(=O)[C@@]1(Cc2ccccc2)[C@H]2c3cc(C(=O)N4CCCC4)n(Cc4ccccn4)c3C[C@H]2CN1C(=O)c1ccccc1"
group_label = "satisfied"


Quick check, z-score >= -0.05? CC1(C)OCC(C(O)C2=CCCCC2=O)CO1 (stereo unspecified)
satisfied

Could you verify whether the entry CCOC(=O)NN=C1C[C@@H](O)[C@@H](O)[C@@H]2[C@@H]3C(=O)N(C4CCCCC4)C(=O)[C@@H]3CC[C@@H]12 shows z-score of no less than -0.05?
not satisfied

Hello, I need to know if CC(C)CN1CCc2nc(-c3ccccc3)c3c(c2CC1)CO[C@@H](C)C3 has measured z-score not below -0.05. Thanks!
satisfied

Answer whether z-score of O=C(CS)NCCCCCNC(=O)[C@@H]1C[C@@H]2C(=O)N[C@@H](Cc3ccccc3)C(=O)N2[C@@H]1c1ccc(O)cc1 is greater than or equal to -0.05.
satisfied

State whether the measured z-score reaches -0.05, counting equality as reaching it, for CCCNC(=O)[C@@H]1c2ccccc2C(=O)N(Cc2ccccc2Cl)[C@H]1c1ccc(CO)cc1
not satisfied

Is z-score for CCOC(=O)C[C@H]1[C@H](OC(=O)c2ccc(C(=O)c3ccccc3)cc2)[C@@H](NC(=O)c2ccc(-c3ccccc3)cc2)c2cc(OCCCO)ccc2N1C(=O)c1ccc2ccccc2n1 at or above -0.05?
not satisfied

Quick check: does Cc1cc2c(c(=O)o1)[C@H](O)[C@H]1O[C@H]1C2=O have z-score greater than or equal to -0.05?
satisfied

Please indicate if the recorded z-score for COC(=O)C1=C(C)N(Cc2ccccc2)[C@]23O[C@](C(=O)OC)(C(=O)N2[C@@H]1c1ccccc1)[C@H]1CCOC(=O)[C@H]13 meets or exceeds -0.05.
satisfied
